Molecular target: Max-Max homodimers (Homo sapiens)
Construct: His6
Sequence (P61244 whole entry): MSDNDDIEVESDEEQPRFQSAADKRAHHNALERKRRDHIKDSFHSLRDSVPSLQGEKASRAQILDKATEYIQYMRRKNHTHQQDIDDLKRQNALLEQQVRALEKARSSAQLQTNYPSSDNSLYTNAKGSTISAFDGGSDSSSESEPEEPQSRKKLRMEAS
Experiment: EMSA of Max-Max homodimerization and DNA binding
Conditions: 50% inhibition of Max-Max dimerization and DNA binding in EMSAs
parameter_measured: IC50

Known results for compounds:
{"compound": "O=C(Nc1ccccc1C(F)(F)F)c1ccc(Nc2ccc([N+](=O)[O-])c3nonc23)cc1", "measured_target": "Max-Max homodimers (Homo sapiens)", "result": "> 100 µM"}
{"compound": "O=C(O)c1ccc(Nc2ccc([N+](=O)[O-])c3nonc23)cc1", "measured_target": "Max-Max homodimers (Homo sapiens)", "result": "> 100 µM"}
{"compound": "Cc1ccc(-c2cc(C(=O)O)ccc2Nc2ccc([N+](=O)[O-])c3nonc23)cc1", "measured_target": "Max-Max homodimers (Homo sapiens)", "result": "> 100 µM"}
{"compound": "COC(=O)c1ccc(Nc2ccc([N+](=O)[O-])c3nonc23)c(-c2ccc(C(F)(F)F)cc2)c1", "measured_target": "Max-Max homodimers (Homo sapiens)", "result": "> 100 µM"}

Return reported IC50. Input compound: O=C(Oc1ccccc1)c1ccc(Nc2ccc([N+](=O)[O-])c3nonc23)cc1
> 50 µM

Using known records, supply IC50 for O=C(Nc1ccccc1)c1ccc(Nc2ccc([N+](=O)[O-])c3nonc23)cc1
> 100 µM

Please report the measured IC50 for COC(=O)c1ccc(Nc2ccc([N+](=O)[O-])c3nonc23)c(-c2ccc(C)cc2)c1
60.6 µM

Tell us which IC50 value is on record for O=C(O)c1cc([N+](=O)[O-])ccc1Nc1ccccc1-c1ccccc1 [SF-3-103B]
> 100 µM

###

Molecular target: c-Myc-Max heterodimers (Homo sapiens)
Construct: c-Myc bHLH-ZIP domain (residues 353-437); His6-TEV protease substrate tag; made in house; host or cells: bacteria (pET151 vector for Myc)
Assay: Electrophoretic mobility shift assay (EMSA) of c-Myc-Max dimerization and DNA binding
parameter_measured: IC50 (µM)
Write the number in µM without appending the unit.

Report IC50 for O=C(Oc1ccccc1)c1ccc(Nc2ccc([N+](=O)[O-])c3nonc23)cc1
30

###

Test system: HL60 cells
Test: Growth inhibition (MTT assay) in HL60 cells
Assay type: cell-based, human
Details: MTT assay, 10-point serial dilution, quadruplicate

{"molecule": "O=C(Nc1ccccc1)c1ccc(Nc2ccc([N+](=O)[O-])c3nonc23)cc1 [JY-5-195]", "measured_target": "HL60 cells", "IC50 HL60": "single-digit micromolar"}
{"molecule": "O=C(Nc1ccccc1C(F)(F)F)c1ccc(Nc2ccc([N+](=O)[O-])c3nonc23)cc1 [JY-5-261]", "measured_target": "HL60 cells", "IC50 HL60": "single-digit micromolar"}

###

Molecular target: c-Myc-Max heterodimers (Homo sapiens, UniProt P01106)
Construct: c-Myc bHLH-ZIP domain (residues 353-437); His6-TEV protease substrate tag; made in house; host or cells: bacteria (pET151 vector for Myc)
Sequence (P01106 368-452, one chain of several): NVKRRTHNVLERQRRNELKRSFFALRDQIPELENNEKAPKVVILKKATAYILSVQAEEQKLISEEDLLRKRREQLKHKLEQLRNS
Test: Electrophoretic mobility shift assay (EMSA) of c-Myc-Max dimerization and DNA binding
Details: Table 10; 100 μM small-molecule, EMSA; read-out: % Inhibition of c-Myc-Max Dimerization
parameter_measured: inhibition at 100 µM (%)
Write the answer as a number in %, unit excluded.

{"molecule": "CC(C)(C)c1ccc(-c2cc(C(=O)O)ccc2Nc2ccc([N+](=O)[O-])c3nonc23)cc1", "numeric_readout": 2}
{"molecule": "O=C(O)c1ccc(Nc2ccc([N+](=O)[O-])c3nonc23)c(-c2ccc(-c3ccccc3)cc2)c1", "numeric_readout": 41}
{"molecule": "O=C(O)c1ccc(-c2cc(C(=O)O)ccc2Nc2ccc([N+](=O)[O-])c3nonc23)cc1", "numeric_readout": 6}
{"molecule": "O=C(O)c1ccc(Nc2ccc([N+](=O)[O-])c3nonc23)c(-c2ccc(C(F)(F)F)cc2)c1", "numeric_readout": 0}
{"molecule": "Cc1ccc(-c2cc(Nc3ccc([N+](=O)[O-])c4nonc34)ccc2C(=O)O)cc1", "numeric_readout": 0}

Okay, now this molecule:
Return reported inhibition at 100 µM. Input molecule: N#Cc1ccccc1-c1cc(C(=O)O)ccc1Nc1ccc([N+](=O)[O-])c2nonc12
44

###

Molecular target: c-Myc-Max heterodimers (Homo sapiens, UniProt P01106)
Construct: c-Myc bHLH-ZIP domain (residues 353-437); His6-TEV protease substrate tag; made in house; host or cells: bacteria (pET151 vector for Myc)
Experiment: Electrophoretic mobility shift assay (EMSA) of c-Myc-Max dimerization and DNA binding
Details: Table 1; 100 μM compound; Myc-Max/DNA band intensity relative to control; read-out: Inhibition at 100 μM (%)
Recorded inhibition at 100 µM values for a group of molecules are listed next.
Write the value in % as a bare number.

State, in one line, measured inhibition at 100 µM of O=[N+]([O-])c1ccc(NCc2ccccc2)c2nonc12
0

Find the measured inhibition at 100 µM of O=C(O)c1ccccc1Nc1ccc([N+](=O)[O-])c2nonc12 and report it.
8

Please give the documented inhibition at 100 µM of O=[N+]([O-])c1ccc(Nc2ccccc2O)c2nonc12
13

Indicate its recorded inhibition at 100 µM; the molecule in question is O=[N+]([O-])c1ccc(NC2CCCCC2)c2nonc12
11

Give the value of inhibition at 100 µM reported for the following: O=[N+]([O-])c1ccc(N2CCCCC2)c2nonc12
10

###

# inhibition at 100 µM values compiled below
Biological target: c-Myc-Max heterodimers (Homo sapiens)
Construct: c-Myc bHLH-ZIP domain (residues 353-437); His6-TEV protease substrate tag; made in house; host or cells: bacteria (pET151 vector for Myc)
Assay: Electrophoretic mobility shift assay (EMSA) of c-Myc-Max dimerization and DNA binding
Conditions: Table 2; 100 μM compound; Myc-Max/DNA band intensity relative to control; read-out: Inhibition at 100 μM (%)
Field: numeric (%). Do not append units.

{"compound": "COC(=O)Nc1ccc(Nc2ccccc2-c2ccccc2)c2nonc12 [Compound 5c]", "inhibition at 100 µM (%)": 0}

Look up and report measured inhibition at 100 µM (c-Myc-Max heterodimers (Homo sapiens)) for the following compound: O=C(O)COCC(=O)Nc1ccc(Nc2ccccc2-c2ccccc2)c2nonc12 [Compound 5e]
33

Give reported inhibition at 100 µM for O=C(Nc1ccc(Nc2ccccc2-c2ccccc2)c2nonc12)C(F)(F)F [Compound 5b] (c-Myc-Max heterodimers (Homo sapiens))
25

Recall the reported inhibition at 100 µM of O=[N+]([O-])c1ccc(Nc2ccccc2-c2ccccc2)cc1 [Compound 7] on c-Myc-Max heterodimers (Homo sapiens) and write it down.
0

Under c-Myc-Max heterodimers (Homo sapiens): report inhibition at 100 µM of O=C(O)CCC(=O)Nc1ccc(Nc2ccccc2-c2ccccc2)c2nonc12 [Compound 5d] .
17

Report inhibition at 100 µM from c-Myc-Max heterodimers (Homo sapiens) testing of CC(=O)Nc1ccc(Nc2ccccc2-c2ccccc2)c2nonc12 [Compound 5a]
2

###

Tested on: HL60 cells
Test: Growth inhibition (MTT assay) in HL60 cells
Format: cell-based, human
Conditions: MTT assay, 10-point serial dilution, quadruplicate
parameter_measured: IC50 HL60

{"compound": "O=C(O)c1ccc(Nc2ccc([N+](=O)[O-])c3nonc23)cc1 [JY-3-094]", "result": "inactive"}
{"compound": "Cc1ccc(-c2cc(C(=O)O)ccc2Nc2ccc([N+](=O)[O-])c3nonc23)cc1 [Compound 3jc53-6]", "result": "inactive"}
{"compound": "O=C(Oc1ccccc1)c1ccc(Nc2ccc([N+](=O)[O-])c3nonc23)cc1 [SF-4-017]", "result": "single-digit micromolar"}
{"compound": "COC(=O)c1ccc(Nc2ccc([N+](=O)[O-])c3nonc23)c(-c2ccc(C)cc2)c1 [Compound 3jc48-3]", "result": "single-digit micromolar"}

###

Target: c-Myc-Max heterodimers (Homo sapiens, UniProt P01106)
Construct: c-Myc bHLH-ZIP domain (residues 353-437); His6-TEV protease substrate tag; made in house; host or cells: bacteria (pET151 vector for Myc)
Assay: Electrophoretic mobility shift assay (EMSA) of c-Myc-Max dimerization and DNA binding
Details: read-out: Inhibition at 100 μM (%), Table 1; 100 μM compound; Myc-Max/DNA band intensity relative to control
parameter_measured: inhibition at 100 µM
Returns: string containing the number followed by the unit.

Here are 3 molecules together with their reported answers.
{"molecule": "O=[N+]([O-])c1ccc(Nc2ccc(-c3ccccc3)cc2)c2nonc12", "measured_target": "c-Myc-Max heterodimers (Homo sapiens, UniProt P01106)", "inhibition at 100 µM": "28%"}
{"molecule": "O=[N+]([O-])c1ccc(Nc2ccccc2)c2nonc12", "measured_target": "c-Myc-Max heterodimers (Homo sapiens, UniProt P01106)", "inhibition at 100 µM": "2%"}
{"molecule": "O=C(O)c1ccc(Nc2ccc([N+](=O)[O-])c3nonc23)cc1", "measured_target": "c-Myc-Max heterodimers (Homo sapiens, UniProt P01106)", "inhibition at 100 µM": "93%"}

Supply measured inhibition at 100 µM of Cc1ccc(Nc2ccc([N+](=O)[O-])c3nonc23)cc1 in your reply.
0%
